- MEASURED_ON: Platelet-activating factor acetylhydrolase IB subunit alpha2 (Homo sapiens)
- PROCEDURE_DETAILS: inhibition of human PAFAH1B2 catalytic subunit – biochemical, fluorescence polarization, FP-rhodamine probe, triplicate, confirmation (AID 493034);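 also: inhibitors lower polarization by leaving the probe unbound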
- SETUP_CONDITIONS: recombinant PAFAH1B2, FP-rhodamine probe fluorescence polarization; at 3.39 µM
Screen size: about 2,400 compounds; about 2,200 (92%) were called active.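 The calls were made as follows: active = mean inhibition over triplicate runs exceeds the cutoff derived for the earlier primary screen (cut at about 25% in these data); inactive = the rest.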 The set was probably picked from earlier hits. Some of the results follow.
Choose the fitting class; nothing outside active, inactive is accepted.

*Q* Assay result, entry CC(C)(C)[C@H]1COC(=O)[C@@H](Cc2ccc(F)cc2)CC/C=C/C[C@@H](CC(=O)N[C@H](CO)Cc2ccccc2)C(=O)N1 — outcome?
*A* active
